Test system: 786-0 renal
Experiment Description: NCI tumour cell line growth inhibition, 48 h
Recorded TGI for the following compounds

Recorded TGI, per entry:
COC(=O)[C@H](Cc1c[nH]c2ccccc12)NP(=O)(O)OC[C@H]1O[C@@H](n2cc(C)c(=O)[nH]c2=O)C[C@@H]1N=[N+]=[N-] : > 100 µM
CN(C)CCCNC(=O)CCNC(=O)c1cc(NC(=O)c2cc(NC(=O)c3cc(NC(=O)c4nccn4C)cn3C)cn2C)cn1C : > 100 µM
COc1cccc(/C=N/NC(=O)c2ccccc2N2CCCC2)c1O : > 100 µM

// below: TGI requested for another compound
Input: Entry C=C1CCCC(C)(C)C1CCC1(C)CCC(C(C)C(=O)OC)OO1 (centres undefined) has what TGI?
Output: 0.76 µM

----------
Test system: A498 renal
Experiment Description: NCI tumour cell line growth inhibition, 48 h
Where a SMILES comes first, the peptide text is derived from it. Bridges are numbered along the chain shown (N, C = ends). [ ]: non-standard residue; d: D form. The star is where a group is joined. ξ: configuration not given here. ξDab(CH2SO3H) = NC(CCNCS(=O)(=O)O)C(=O)O; Heptanoyl(6-Me) = CC(C)CCCCC(=O)*; Dab = NCC[CH](N)C(=O)O
Recorded GI50 for the following compounds

Recorded GI50, per entry:
O=C([O][Hg][CH2]C1OCCOC1[CH2][Hg][O]C(=O)c1ccccc1)c1ccccc1 (configuration not stated) : 20.3 µM
COc1cc2c(cc1Cc1cccc(Cl)c1F)c(=O)c(C(=O)O)cn2[C@@H](CO)C(C)C : 2.26 µM
Cn1cc(C2=C(c3c4n(c5ccccc35)CCC(CN)C4)C(=O)NC2=O)c2ccccc21 (configuration not stated) : 4.02 µM
COc1cc2ncnc(Nc3cccc(Cl)c3F)c2cc1OC(=O)N1CCN(C)C[C@H]1C : 3.44 µM
CCC(C)C1NC(=O)C(CCNCS(=O)(=O)O)NC(=O)C(NC(=O)C(CCNCS(=O)(=O)O)NC(=O)C(NC(=O)C(CCNCS(=O)(=O)O)NC(=O)CCCCC(C)C)C(C)O)CCNC(=O)C(C(C)O)NC(=O)C(CCNCS(=O)(=O)O)NC(=O)C(CCNCS(=O)(=O)O)NC(=O)C(C(C)CC)NC1=O (configuration not stated) ({Heptanoyl(6-Me)}-[ξDab(CH2SO3H)]T[ξDab(CH2SO3H)][Dab][ξDab(CH2SO3H)]II[ξDab(CH2SO3H)][ξDab(CH2SO3H)]T; lactam 4-C; configuration not given here) : 7.07 µM
Clc1ccc(Nc2ccnc(N3CCN(c4ccnc5cc(Cl)ccc45)CC3)n2)cc1 : 0.603 µM
CCN1C(=O)N(CC)C2C1NN=c1s/c(=C\c3ccco3)c(=O)n12 (configuration not stated) : 0.39 µM
O=C(Nc1ccc(-n2cc(-c3ccncc3)c(-c3ccc(O)c(Cl)c3)n2)cc1)Nc1ccc(Cl)c(C(F)(F)F)c1 : 14.8 µM

Input: Entry CCOC(=O)c1cc(C(=O)c2cc(OC)c(OC)c(OC)c2)n2c1ccc1ccccc12 has what GI50?
Output: 0.0362 µM

Input: Entry CCCCCCCCCCCC(=O)N1CCN(C(C)=O)CC1 has what GI50?
Output: 62.7 µM

----------
Test system: RPMI-8226 leukemia
Experiment Description: NCI tumour cell line growth inhibition, 48 h
Result Type: TGI

Recorded TGI, per entry:
CC(=O)C1Cn2c(=O)c3cc4ccccc4cc3c(=O)n2C=C1C (centres undefined) : > 100 µM
C[C@@H](NC(=O)/C(C#N)=C/c1ccc([N+](=O)[O-])cc1)c1ccccc1 : 5.95 µM
Cc1ccc(NC(=O)c2cc3ccccc3c(N=Nc3cc(S(=O)(=O)O)ccc3O)c2O)c(C)c1 : > 100 µM
CCOC(=O)C(N=C(c1ccccc1)c1ccccc1)N(C(=O)OC(C)(C)C)C(=O)OC(C)(C)C (centres undefined) : > 100 µM
CC1(C)CC[C@]2(C(=O)O)CC[C@]3(C)C(=CC[C@@H]4[C@@]5(C)C[C@H](O)[C@H](O)[C@@](C)(C(=O)O)[C@@H]5CC[C@]43C)[C@@H]2C1 : > 100 µM

Input: Entry NC(=O)/C(=N\NC(=O)C[n+]1ccccc1)C1NC(=O)NC1=O (centres undefined) has what TGI?
Output: > 100 µM

Input: Entry O=C1C=CC(=O)c2c1ccc1c3ccccc3n(-c3ccccc3)c21 has what TGI?
Output: 4.59 µM

Input: Entry Cc1ccc([N+](=O)[O-])cc1S(=O)(=O)Nc1ccc(C2=NOC(c3cccs3)C2)cc1 (centres undefined) has what TGI?
Output: 94.5 µM

Input: Entry O=c1/c(=C/c2ccc([N+](=O)[O-])o2)sc2n1[C@@H](c1ccc(Cl)cc1)C=C(c1cc(F)c(Cl)cc1Cl)N=2 has what TGI?
Output: 25.9 µM

Input: Entry O=C(CCCN1CCC2(CC1)CC(=O)N(N1CCOCC1)C2=O)c1ccc(F)cc1 has what TGI?
Output: > 100 µM

----------
Test system: HL-60(TB) leukemia
Experiment Description: NCI tumour cell line growth inhibition, 48 h
Result Type: TGI (µM)
Give your result in µM as a bare value.

Recorded TGI, per entry:
C=C(C)[C@@]1(O)CCCC[C@@H]1CC(Sc1ccccc1)Sc1ccccc1 : 78.4
C/C(=N\NC(=S)N(C)C)c1nc2ncccc2[nH]1 : 1.32
CCC(O)C1Cc2c(C)cc3c(c2O1)C(=O)c1ccccc1C3=O (centres undefined) : 51.7

// below: TGI requested for another molecule
Input: Entry CCN(CC)C1CCC(C2c3cc4c(cc3OC(N3CCOCC3)C2C)OCO4)CC1 (centres undefined) has what TGI?
Output: 89.8

----------
System: NCI-H23 lung
Experiment Description: NCI tumour cell line growth inhibition, 48 h
Result Type: TGI

Recorded TGI, per entry:
CCOC(=O)c1cc(C(=O)c2cc(OC)c(OC)c(OC)c2)n2c1ccc1ccccc12 : > 100 µM
CC/C(=C(/c1ccc(O)cc1)c1ccc(OCCN)cc1)c1ccccc1 : 16.5 µM

Input: Entry CCOC(=O)C(N=C(c1ccccc1)c1ccccc1)N(C(=O)OC(C)(C)C)C(=O)OC(C)(C)C (centres undefined) has what TGI?
Output: > 100 µM

----------
Tested on: OVCAR-8 ovarian
Experiment Description: NCI tumour cell line growth inhibition, 48 h; in the data active = GI50 below about 0.43 µM; inactive = the rest
Write down one outcome, taken from 1 for active, -1 for inactive

Input: For COc1ccc2c(c1)oc(=O)c1cc(OC)ccc12 , which call appears in the assay record?
Output: -1

----------
Test system: NCI-H226 lung
Experiment Description: NCI tumour cell line growth inhibition, 48 h
Recorded TGI for the following compounds

Recorded TGI, per entry:
Cc1occc1C(=S)Nc1ccc(Cl)c(/C=N/OC(C)(C)C)c1 : 32.4 µM
COc1ccc2[nH]cc(C(=O)C(=O)NC34CC5CC(CC(C5)C3)C4)c2c1 : > 71.1 µM
CCOC(=O)C1C(C)C2(C#N)C(=N)OC1(C)C2(C#N)C#N (stereo unspecified) : > 100 µM
O[C@H]1[C@H](O)[C@@H](O)[C@@]2(O)CC[C@@H]1N2 : > 100 µM
CC1=NN(c2ccc(S(=O)(=O)O)cc2)C(=O)/C1=C/c1ccc(Cl)cc1 : > 100 µM
C[C@@H]1CCC([C@@H](C)[C@H]2CC[C@H]3[C@@H]4CC[C@H]5C[C@@H](O)CC[C@]5(C)[C@H]4CC[C@]23C)=NC1 : > 100 µM
COc1ccc(Cc2c(=O)[nH]nc3ccccc23)cc1 : > 100 µM
OCCCNc1ncnc2[nH]ncc12 : > 100 µM
COc1ccc(C2=C(N)c3c(Cl)cccc3C2=O)cc1 : > 100 µM
Cc1c2c(OCC(O)CN3CCN(c4ccccc4)CC3)nn(C)c(=O)c2c(C)n1-c1ccccc1 (stereo unspecified) : 54.5 µM

Input: Entry O=C(O)CCc1nc2ccccc2[nH]1 has what TGI?
Output: > 100 µM

Input: Entry CCCc1cc(=O)n2c(C(=O)Nc3cccc(C(=O)OCC)c3)c(C(=O)Nc3ccc(F)cc3)sc2n1 has what TGI?
Output: 27.7 µM

Input: Entry COc1ccc(NC(=O)CC/C(CC(=O)c2ccco2)=N/NC(N)=S)cc1 has what TGI?
Output: > 100 µM

Input: Entry C/C(CC(=O)Nc1cc(C)ccc1C)=N/N=C(N)N has what TGI?
Output: > 100 µM

Input: Entry CCOC(=O)C1(C(=O)OCC)C[C@@H](C)[C@@H](O)C1 has what TGI?
Output: > 100 µM

----------
System: T-47D breast
Experiment Description: NCI tumour cell line growth inhibition, 48 h
Result Type: GI50

Input: Entry [Cl][Hg][c]1ccc(Cl)s1 has what GI50?
Output: 0.908 µM

Input: Entry CC(C)(C)[Si](C)(C)OC1[C@@H](O[Si](C)(C)C(C)(C)C)[C@@H](CNC(=O)NC(=O)CF)O[C@H]1n1cnc2c(NC(=O)Nc3ccccc3)ncnc21 (stereo partly drawn) has what GI50?
Output: 4.7 µM

Input: Entry COc1cccc(/C=N/NC(=O)c2ccccc2N2CCCC2)c1O has what GI50?
Output: 3.02 µM

Input: Entry CC(=O)Nc1c(I)c(NC(C)=O)c(I)c(C(=O)O)c1I has what GI50?
Output: > 100 µM

Input: Entry C=C1C(=O)O[C@H]2[C@H]1CC/C(C=Nc1c(N)cc(C(F)(F)F)cc1C(F)(F)F)=C\CC[C@@]1(C)O[C@@H]21 has what GI50?
Output: 0.55 µM

Input: Entry C[C@]12CC[C@@H]3c4cc(O)c(O)cc4CC[C@H]3[C@@H]1CC[C@@H]2O has what GI50?
Output: 7.73 µM

Input: Entry CC/C(=C(/c1ccc(O)cc1)c1ccc(OCCN)cc1)c1ccccc1 has what GI50?
Output: 1.67 µM

Input: Entry COc1ccc2c(c1)oc(=O)c1cc(OC)ccc12 has what GI50?
Output: > 100 µM
